Provide the reported ELISA reading of each item.
biological target: T1, soluble KDR extracellular domain (ECD) (Calbiochem) (human, UniProt P35968 20-764); assay: High Antigen ELISA, KDR coat 500 ng/mL, supernatant 1:18,225
T1 construct: extracellular domain; Bought protein; also called KDR-ECD; VEGF Receptor 2 D1-7, Cat. #676490
T1 sequence (P35968 20-764): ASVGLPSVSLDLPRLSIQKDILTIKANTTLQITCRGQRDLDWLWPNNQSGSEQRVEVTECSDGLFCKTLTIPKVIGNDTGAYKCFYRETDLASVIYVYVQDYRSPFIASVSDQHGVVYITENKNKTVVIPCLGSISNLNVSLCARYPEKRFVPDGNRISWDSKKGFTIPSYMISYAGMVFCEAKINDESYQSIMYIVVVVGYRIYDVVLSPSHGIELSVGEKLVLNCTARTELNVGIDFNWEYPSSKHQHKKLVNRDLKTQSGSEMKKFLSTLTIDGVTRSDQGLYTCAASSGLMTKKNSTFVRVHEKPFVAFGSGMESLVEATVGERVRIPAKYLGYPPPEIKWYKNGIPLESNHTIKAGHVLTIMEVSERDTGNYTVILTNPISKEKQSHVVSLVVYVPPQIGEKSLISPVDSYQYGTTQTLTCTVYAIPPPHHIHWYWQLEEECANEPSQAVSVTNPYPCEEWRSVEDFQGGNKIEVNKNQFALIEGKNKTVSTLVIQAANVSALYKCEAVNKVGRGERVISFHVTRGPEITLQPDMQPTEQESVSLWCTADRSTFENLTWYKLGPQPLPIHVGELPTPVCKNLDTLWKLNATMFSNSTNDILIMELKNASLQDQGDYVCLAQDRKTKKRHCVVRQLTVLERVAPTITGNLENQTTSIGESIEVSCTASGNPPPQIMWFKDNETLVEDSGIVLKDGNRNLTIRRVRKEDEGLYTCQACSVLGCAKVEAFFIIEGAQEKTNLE
// no unit string in output, number only

[Q] Any idea what ELISA reading was measured for 21H9 (antibody, V domains shown, Fully human mAb from XenoMouse hybridoma, tested as hybridoma supernatant) VH: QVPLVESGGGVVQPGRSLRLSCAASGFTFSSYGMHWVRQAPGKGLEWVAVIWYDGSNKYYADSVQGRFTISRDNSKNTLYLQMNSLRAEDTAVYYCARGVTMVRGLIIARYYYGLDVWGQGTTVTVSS VL: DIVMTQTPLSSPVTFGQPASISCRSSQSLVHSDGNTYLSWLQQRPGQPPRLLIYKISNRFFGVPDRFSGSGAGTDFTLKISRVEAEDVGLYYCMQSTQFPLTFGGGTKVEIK ?
[A] 0.12

[Q] Any idea what ELISA reading was measured for 32G7 (antibody, V domains shown, Fully human mAb from XenoMouse hybridoma, tested as hybridoma supernatant) VH: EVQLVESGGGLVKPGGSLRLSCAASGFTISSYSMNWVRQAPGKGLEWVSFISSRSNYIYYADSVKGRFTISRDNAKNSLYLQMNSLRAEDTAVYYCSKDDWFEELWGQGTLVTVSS VL: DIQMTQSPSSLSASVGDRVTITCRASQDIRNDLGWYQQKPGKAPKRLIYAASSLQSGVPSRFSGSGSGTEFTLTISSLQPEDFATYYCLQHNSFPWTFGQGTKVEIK ?
[A] 0.11

[Q] Any idea what ELISA reading was measured for 29A3 (antibody, V domains shown, Fully human mAb from XenoMouse hybridoma, tested as hybridoma supernatant) VH: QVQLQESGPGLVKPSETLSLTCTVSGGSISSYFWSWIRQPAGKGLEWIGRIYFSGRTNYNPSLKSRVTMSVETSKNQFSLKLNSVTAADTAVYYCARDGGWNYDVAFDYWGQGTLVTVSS VL: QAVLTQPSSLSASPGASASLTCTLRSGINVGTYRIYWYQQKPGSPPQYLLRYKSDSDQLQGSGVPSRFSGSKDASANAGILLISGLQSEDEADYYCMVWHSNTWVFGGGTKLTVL ?
[A] 0.24

[Q] Any idea what ELISA reading was measured for 24B3 (antibody, V domains shown, Fully human mAb from XenoMouse hybridoma, tested as hybridoma supernatant) VH: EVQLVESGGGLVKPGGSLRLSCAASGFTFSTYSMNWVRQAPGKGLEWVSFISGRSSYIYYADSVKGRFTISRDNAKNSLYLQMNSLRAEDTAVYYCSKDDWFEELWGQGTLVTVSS VL: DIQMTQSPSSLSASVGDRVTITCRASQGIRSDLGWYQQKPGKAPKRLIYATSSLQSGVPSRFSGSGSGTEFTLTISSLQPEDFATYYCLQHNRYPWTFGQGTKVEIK ?
[A] 0.08

[Q] Any idea what ELISA reading was measured for 30A1 (antibody, V domains shown, Fully human mAb from XenoMouse hybridoma, tested as hybridoma supernatant) VH: QLQLQESGPGLVKPSETLSLTCTVSGGSISSPNYYWGWIRQPPGKGLEWIGTIYYSGNTFYNPSLKSRVTISVDTSKNQFSLKLSSVTAADTAVYYCATQQLVLYYFDFWGQGTLVTVSS VL: EIVLTQSPGTLSLSPGKRAALSCRASQSISSSYLAWYQQKPGQAPRLLIYGASSRATGIPDRFNGSGSGTDFTLTISRLEPEDFAVYYCQQLGSSITFGQGTRLEIK ?
[A] 1.11

[Q] Any idea what ELISA reading was measured for 1G6 (antibody, V domains shown, Fully human mAb from XenoMouse hybridoma, tested as hybridoma supernatant) VH: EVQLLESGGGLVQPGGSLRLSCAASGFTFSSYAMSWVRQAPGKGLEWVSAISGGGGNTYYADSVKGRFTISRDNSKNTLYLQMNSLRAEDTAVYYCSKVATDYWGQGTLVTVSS VL: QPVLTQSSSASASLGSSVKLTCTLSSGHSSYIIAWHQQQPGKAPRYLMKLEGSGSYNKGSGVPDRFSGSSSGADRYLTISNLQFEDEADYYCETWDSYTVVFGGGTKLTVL ?
[A] 0.26

[Q] Any idea what ELISA reading was measured for 31E11 (antibody, V domains shown, Fully human mAb from XenoMouse hybridoma, tested as hybridoma supernatant) VH: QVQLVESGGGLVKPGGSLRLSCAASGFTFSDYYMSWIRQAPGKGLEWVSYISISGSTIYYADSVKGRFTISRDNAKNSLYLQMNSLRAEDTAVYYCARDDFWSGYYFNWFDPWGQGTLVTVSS VL: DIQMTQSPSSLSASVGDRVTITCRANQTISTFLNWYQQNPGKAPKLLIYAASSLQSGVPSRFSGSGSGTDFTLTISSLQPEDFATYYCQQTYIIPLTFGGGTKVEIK ?
[A] 0.31

[Q] Any idea what ELISA reading was measured for 21H6 (antibody, V domains shown, Fully human mAb from XenoMouse hybridoma, tested as hybridoma supernatant) VH: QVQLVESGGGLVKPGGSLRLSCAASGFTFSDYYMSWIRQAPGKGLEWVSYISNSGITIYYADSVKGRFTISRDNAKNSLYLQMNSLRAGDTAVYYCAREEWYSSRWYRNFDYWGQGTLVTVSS VL: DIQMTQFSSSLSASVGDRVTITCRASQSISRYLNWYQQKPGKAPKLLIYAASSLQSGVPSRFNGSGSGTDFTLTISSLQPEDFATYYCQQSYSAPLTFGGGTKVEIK ?
[A] 0.54

[Q] Any idea what ELISA reading was measured for 21A1 (antibody, V domains shown, Fully human mAb from XenoMouse hybridoma, tested as hybridoma supernatant) VH: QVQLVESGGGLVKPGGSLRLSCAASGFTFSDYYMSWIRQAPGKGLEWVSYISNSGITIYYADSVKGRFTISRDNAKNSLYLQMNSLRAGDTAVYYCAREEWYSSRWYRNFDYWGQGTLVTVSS VL: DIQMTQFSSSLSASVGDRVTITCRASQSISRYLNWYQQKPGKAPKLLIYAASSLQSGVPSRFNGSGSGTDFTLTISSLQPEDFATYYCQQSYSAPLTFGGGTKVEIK ?
[A] 0.25

[Q] Any idea what ELISA reading was measured for 33E1 (antibody, V domains shown, Fully human mAb from XenoMouse hybridoma, tested as hybridoma supernatant) VH: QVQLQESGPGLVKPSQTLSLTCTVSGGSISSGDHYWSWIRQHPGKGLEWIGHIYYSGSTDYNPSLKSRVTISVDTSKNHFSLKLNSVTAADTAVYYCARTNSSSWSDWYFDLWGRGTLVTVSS VL: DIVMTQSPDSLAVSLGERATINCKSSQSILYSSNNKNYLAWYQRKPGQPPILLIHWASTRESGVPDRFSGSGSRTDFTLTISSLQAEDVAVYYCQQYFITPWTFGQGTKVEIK ?
[A] 0.49
